# System: NCI-H23 lung
# ASSAY COMMENT: NCI tumour cell line growth inhibition, 48 h
QUANTITY MEASURED: TGI

Solved cases (6 shown):
> print(dat)
                                   compound  quantity.measured    result
1  COC(=O)[C@@H]1CN(C(=O)c2ccccc2)C(=O)N1C(=O)OCc1ccccc1                TGI  > 100 µM
2               Nc1nc(Cl)cc(NCC2(O)CCCC2)n1                TGI  > 100 µM
3  CC(=O)Oc1ccc2c(c1)CC[C@@H]1C2CC[C@]2(C)C(=O)NC(=O)CC12 (stereo not given in full)                TGI  > 100 µM
4  CCOC(=O)C1(C(F)(F)F)N=C(CC)OC(N2CCOCC2)=N1 (stereo not given)                TGI  > 100 µM
5  NCCC1CN(C(=O)OCc2ccccc2)c2ccccc21 (stereo not given)                TGI   41.8 µM
6  CN1C(=O)C(O)CC1c1cccc(C(F)(F)F)c1 (stereo not given)                TGI  > 100 µM

Report TGI for every entry below.
1. Cc1nc(-c2cc3cc(Cl)ccc3oc2=O)cc2c1c(=O)oc1ccc(Cl)cc12
2. COc1cccc(/C=C/C(=O)c2cc3c(N)c(C(=O)Nc4cccc5ccccc45)sc3nc2C)c1
3. C/C(CC(=O)N(C(C)C)C(C)C)=N\NC(=O)c1ccncc1
4. COc1cc([N+](=O)[O-])c2ncccc2c1[N+](=O)[O-]
5. CC/C=C\C/C=C\C[C@H](O)C/C=C1/C(=O)C=C[C@@H]1C/C=C\CCCC(=O)OC
6. C[C@]12CC[C@H](OC3CCCCO3)CC1=CC[C@@H]1C2CC[C@]2(C)/C(=N/O)CCC12 (stereo not given in full)

Ans.
> 100 µM
> 50 µM
> 100 µM
16.1 µM
5.29 µM
39.1 µM
